Origin of measurements: PubChem BioAssay AID1919008

Listed next: entries and their corresponding viability, T/C.
- Test system: DMS-114 complex spheroids with HUVEC/MSC, growth % test/control
- ASSAY TEXT: Anticancer human tumor DMS-114 cell line growth inhibition [AhR];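 note: spheroids exposed to agents for 7 days before readout; 100% = DMSO vehicle control wells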
- CONDITION INFO: second compound 10 µM; first compound 0.003 µM; active compounds read low
Enter your answer as a number in %; do not include the unit.

Past entries and their recorded results:
Per the records, this compound ( Nc1ncn(C2CC(O)C(CO)S2)c(=O)n1 (centres undefined) + Cc1cncc(-c2nc(NCCc3c[nH]c4ccccc34)c3ncn(C(C)C)c3n2)c1 ) has viability, T/C equal to 51.4

# viability, T/C of Nc1ncn(C2CC(O)C(CO)S2)c(=O)n1 (centres undefined) + CC(CO)NC(=O)c1cc(-c2ccc(Cl)cc2)nn(-c2cnn(C)c2)c1=O = 108

// CCc1c2c(nc3ccc(O)cc13)-c1cc3c(c(=O)n1C2)COC(=O)[C@]3(O)CC + CC(CO)NC(=O)c1cc(-c2ccc(Cl)cc2)nn(-c2cnn(C)c2)c1=O : viability, T/C value = 35.9

Next:
Note to self: viability, T/C recorded for CC(C)CC(NC(=O)C(Cc1ccccc1)NC(=O)c1cnccn1)B(O)O (centres undefined) + Cc1ccccc1N=Nc1ccc(NC(=O)c2ccnn2C)c(C)c1 was 88.7

The measured viability, T/C associated with CC(C)CC(NC(=O)C(Cc1ccccc1)NC(=O)c1cnccn1)B(O)O (centres undefined) + CC(CO)NC(=O)c1cc(-c2ccc(Cl)cc2)nn(-c2cnn(C)c2)c1=O reads 72.8

Record Nc1ncn(C2CC(O)C(CO)S2)c(=O)n1 (centres undefined) + Cc1ccccc1N=Nc1ccc(NC(=O)c2ccnn2C)c(C)c1 , field viability, T/C: 97.3

Sure, the documented viability, T/C for CCc1c2c(nc3ccc(O)cc13)-c1cc3c(c(=O)n1C2)COC(=O)[C@]3(O)CC + Cc1cncc(-c2nc(NCCc3c[nH]c4ccccc34)c3ncn(C(C)C)c3n2)c1 is 17.4

Lab note: CCc1c2c(nc3ccc(O)cc13)-c1cc3c(c(=O)n1C2)COC(=O)[C@]3(O)CC + Cc1ccccc1N=Nc1ccc(NC(=O)c2ccnn2C)c(C)c1 gave viability, T/C of 82.2

Note to self: viability, T/C recorded for CC(C)CC(NC(=O)C(Cc1ccccc1)NC(=O)c1cnccn1)B(O)O (centres undefined) + Cc1cncc(-c2nc(NCCc3c[nH]c4ccccc34)c3ncn(C(C)C)c3n2)c1 was 28.9

====

- Test system: DMS-114 complex spheroids with HUVEC/MSC, growth % test/control
- ASSAY TEXT: Anticancer human tumor DMS-114 cell line growth inhibition [AhR];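 note: spheroids exposed to agents for 7 days before readout; 100% = DMSO vehicle control wells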
- CONDITION INFO: second compound 1 µM; first compound 0.949 µM; active compounds read low
ENDPOINT NAME: viability, T/C (%)
Unit % implied. Number only.

Here's what some known entries look like.
Reported viability, T/C ( CCN(c1cc(-c2ccc(CN3CCOCC3)cc2)cc(C(=O)NCc2c(C)cc(C)[nH]c2=O)c1C)C1CCOCC1 + CC(CO)NC(=O)c1cc(-c2ccc(Cl)cc2)nn(-c2cnn(C)c2)c1=O ) = 95.7

CCN(c1cc(-c2ccc(CN3CCOCC3)cc2)cc(C(=O)NCc2c(C)cc(C)[nH]c2=O)c1C)C1CCOCC1 + Cc1cncc(-c2nc(NCCc3c[nH]c4ccccc34)c3ncn(C(C)C)c3n2)c1 has a reported viability, T/C of 76.6

Measured viability, T/C, O=C(C=Cn1cnc(-c2cc(C(F)(F)F)cc(C(F)(F)F)c2)n1)NNc1cnccn1 + Cc1cncc(-c2nc(NCCc3c[nH]c4ccccc34)c3ncn(C(C)C)c3n2)c1 : 13.6

Note to self: viability, T/C recorded for CCN(c1cc(-c2ccc(CN3CCOCC3)cc2)cc(C(=O)NCc2c(C)cc(C)[nH]c2=O)c1C)C1CCOCC1 + Cc1ccccc1N=Nc1ccc(NC(=O)c2ccnn2C)c(C)c1 was 112

O=C(C=Cn1cnc(-c2cc(C(F)(F)F)cc(C(F)(F)F)c2)n1)NNc1cnccn1 + CC(CO)NC(=O)c1cc(-c2ccc(Cl)cc2)nn(-c2cnn(C)c2)c1=O has a reported viability, T/C of 16.4

The record that follows has no viability, T/C shown yet.
// sample O=C(C=Cn1cnc(-c2cc(C(F)(F)F)cc(C(F)(F)F)c2)n1)NNc1cnccn1 + Cc1ccccc1N=Nc1ccc(NC(=O)c2ccnn2C)c(C)c1 , its viability, T/C was 51.8
